- SYSTEM_TESTED: UniProt:P9WGR1
- Sequence (P9WGR1 whole entry): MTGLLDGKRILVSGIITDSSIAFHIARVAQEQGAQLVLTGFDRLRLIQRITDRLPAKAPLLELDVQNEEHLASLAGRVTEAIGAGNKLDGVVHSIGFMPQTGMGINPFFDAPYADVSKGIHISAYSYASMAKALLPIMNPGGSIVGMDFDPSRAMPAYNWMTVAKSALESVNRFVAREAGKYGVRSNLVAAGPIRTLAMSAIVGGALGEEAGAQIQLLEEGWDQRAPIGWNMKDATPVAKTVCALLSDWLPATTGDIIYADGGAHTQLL
- ASSAY: Inhibition of InhA in Mycobacterium tuberculosis H37Ra assessed as reduction in mycolic acids synthesis by measuring MAME level at 200 uM incubated for 48 hrs using [14C]acetate by TLC based metabolic labeling assay relative to control
Activity calls are given as the source filed them. The rule behind the calls is not given here.
Outcome field: choose from active, inactive

QUERY: Can you look up the reported call for NCc1cccc(NS(=O)(=O)c2cc3ccccc3s2)c1 for me?
RESULT: inactive

New cases:
QUERY: Can you look up the reported call for Cc1c(S(=O)(=O)Nc2cccc(CN)c2)sc2ccc(F)cc12 for me?
RESULT: inactive

QUERY: Can you look up the reported call for NCc1cccc(NS(=O)(=O)/C=C/c2cccc(C(F)(F)F)c2)c1 for me?
RESULT: active

QUERY: Can you look up the reported call for NCc1ccc(NS(=O)(=O)/C=C/c2cccc(C(F)(F)F)c2)cc1 for me?
RESULT: inactive

QUERY: Can you look up the reported call for Cc1c(S(=O)(=O)Nc2cccc(CN)c2)sc2ccc(Cl)cc12 for me?
RESULT: inactive

QUERY: Can you look up the reported call for NCc1cccc(NS(=O)(=O)c2cc3ccccc3o2)c1 for me?
RESULT: inactive
